# credit: PubChem BioAssay

Catalogue of composite z-score values
# System: wheat germ agglutinin (Triticum aestivum), Alexa647-labelled
# test.description: Alexa647-WGA lectin binding to printed small molecules – biochemical, small-molecule microarray, 635/667 nm fluorescence, artefact control for SMM control-protein annotation, profiling panel (AID 1140);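 also: score merges 667 nm feature emission with signal to noise over triplicate slides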
# assay.conditions: WGA-A647 binding, 635 nm fluorescence, higher = more signal
recorded.endpoint: composite z-score

1) C=CCOc1ccc([C@@H]2CC=C(C(=O)OCC)[C@H](c3cccc(Br)c3)N2S(=O)(=O)c2ccc(C)cc2)cc1 : 0.268
2) CCOC(=O)C[C@H]1[C@H](OC(=O)Cc2ccc3c(c2)OCO3)[C@@H](NC(=O)c2ccccc2)c2cc(OCCCO)ccc2N1C(=O)c1ccc2ccccc2n1 : 0.473
3) O=C1O[C@@H](c2ccccc2)[C@@H](c2ccccc2)N2[C@@H](c3ccc(O)cc3)[C@]3(C(=O)Nc4ccc(C#CC5(O)CCCCCC5)cc43)[C@@H](C(=O)N3CCN(c4ncccn4)CC3)[C@H]12 : 0.601
4) CC(C)N1C(=O)c2ccccc2[C@](C)(C(=O)O)[C@@H]1c1ccc(CO)cc1 : -0.36
5) Cc1ccc(S[C@]2(C(=O)NCCN3CCOCC3)CC(=O)N(C3Cc4ccccc4C3)[C@@H]2c2ccc(CO)cc2)cc1 : -0.278
6) C=CCOC(=O)[C@@H]1[C@H]2C(=O)O[C@H](c3ccccc3)[C@H](c3ccccc3)N2[C@H](c2ccc(OCCOC(=O)[C@@H]3C[C@@H]4C(=O)N5CCC[C@H]5C(=O)N4[C@@H]3c3cccc(OCCO)c3)cc2)[C@@]12C(=O)Nc1ccc(I)cc12 : 0.504
7) CN(C)CCCCNC(=O)[C@H]1C[C@H]2C(=O)N[C@@H](CCCC[N+](C)(C)C)C(=O)N2[C@H]1c1cccc(OCCO)c1 : 0.115
8) CC(C)(C)OC(=O)CC[C@]1(C(=O)O)COC(c2ccc(OCCCO)cc2)=N1 : 0.62
9) C=CCC(OC(C)=O)[C@@H]1[C@@H](N(Cc2ccc(-c3cccc(C(F)(F)F)c3)o2)C(=O)c2cccc3ccccc23)c2cc(OCCCO)ccc2N1C(=O)c1ccc(-c2ccccc2)cc1 (some centres not stated) : -0.643
10) O=C1O[C@H](c2ccccc2)[C@H](c2ccccc2)N2[C@H]1[C@@H](C(=O)N1CCCCCCC1)[C@]1(C(=O)Nc3ccc(C#CCCO)cc31)[C@H]2c1ccc(OCCO)cc1 : 1.64
11) COc1cc2c(cc1OC)CN(C(=O)[C@@H]1[C@H]3C(=O)O[C@H](c4ccccc4)[C@H](c4ccccc4)N3[C@H](c3ccc(OCCO)cc3)[C@@]13C(=O)Nc1ccc(C#CCCO)cc13)CC2 : 1.27
12) COC(=O)[C@@]1(Cc2ccccc2)[C@H]2c3cc(C(=O)N4CCCC4)n(Cc4ccc(OC(F)(F)F)cc4)c3C[C@H]2CN1C(=O)c1ccccc1 : 1.16
